# Target: recombinant human Bcl-2 D103Y protein (Homo sapiens (Human), UniProt P10415, D103Y)
# Sequence (P10415 whole entry D103Y): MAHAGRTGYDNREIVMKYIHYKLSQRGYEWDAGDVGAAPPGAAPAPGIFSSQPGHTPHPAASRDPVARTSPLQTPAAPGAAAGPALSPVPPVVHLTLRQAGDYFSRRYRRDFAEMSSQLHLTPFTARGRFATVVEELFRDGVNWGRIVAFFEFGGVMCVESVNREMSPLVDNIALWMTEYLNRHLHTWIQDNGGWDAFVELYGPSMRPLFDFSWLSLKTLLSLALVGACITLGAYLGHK
# Method description: Bcl-2-D103Y Biochemical Assay (TR-FRET)
# Assay type: binding
# Condition set: ratio of IC50
Result type: Ratio of Bcl-2 D103Y/Bcl-2 WT
Numbers only.

Example cases with answers are listed next.
compound="CC(C)c1ccccc1C1CN(C(C)c2ccccc2)CCN1C1CC2(CCN(c3ccc(C(=O)NS(=O)(=O)c4ccc(NC[C@H]5CC[C@](C)(O)CC5)c([N+](=O)[O-])c4)c(Oc4cnc5[nH]ccc5c4)c3)CC2)C1 (single isomer, unassigned) [Example 24b]" experimental_value=2.3
compound="COc1ccc(CN2CCN(C3CC4(C3)CN(c3ccc(C(=O)NS(=O)(=O)c5ccc(NC[C@H]6CC[C@](C)(O)CC6)c([N+](=O)[O-])c5)c(Oc5cnc6[nH]cc(F)c6c5)c3)C4)[C@H](c3ccccc3C(C)C)C2)nc1 [Example 241]" experimental_value=1.3
compound="CC(C)c1ccccc1[C@@H]1CN(Cc2ccc(C3CCOC3)cc2)CCN1C1CC2(C1)CN(c1ccc(C(=O)NS(=O)(=O)c3ccc(NCC4CCC(C)(O)CC4)c([N+](=O)[O-])c3)c(Oc3cnc4[nH]cc(F)c4c3)c1)C2 (stereo partly shown) [Example 371]" experimental_value=2.6
compound="COc1cc(CN2CCN(C3CC4(C3)CN(c3ccc(C(=O)NS(=O)(=O)c5ccc(NC[C@H]6CC[C@](C)(O)CC6)c([N+](=O)[O-])c5)c(Oc5cnc6[nH]cc(F)c6c5)c3)C4)[C@H](c3ccccc3C(C)C)C2)cc2c1OCC2(C)C [Example 295]" experimental_value=1.3
compound="COc1cc(CN2CCN(C3CC4(CCN(c5ccc(C(=O)NS(=O)(=O)c6ccc(NC[C@H]7CC[C@](C)(O)CC7)c([N+](=O)[O-])c6)c(Oc6cnc7[nH]ccc7c6)c5)CC4)C3)C(c3ccccc3C(C)C)C2)cc(OC)c1OC (stereo partly shown) [Example 75]" experimental_value=3.6

Could you report Ratio of Bcl-2 D103Y/Bcl-2 WT for every entry in the following list?
1. COc1cc(CN2CCN(C3CC4(C3)CN(c3ccc(C(=O)NS(=O)(=O)c5ccc(NC[C@H]6CC[C@](C)(O)CC6)c([N+](=O)[O-])c5)c(Oc5cnc6[nH]ccc6c5)c3)C4)[C@H](c3ccccc3C(C)C)C2)ccc1C [Example 275]
2. CC(C)c1ccccc1C1CN(Cc2ccc(C(F)(F)F)cc2)CCN1C1CC2(CCN(c3ccc(C(=O)NS(=O)(=O)c4ccc(NC[C@H]5CC[C@](C)(O)CC5)c([N+](=O)[O-])c4)c(Oc4cnc5[nH]ccc5c4)c3)CC2)C1 (stereo partly shown) [Example 41]
3. CC(C)c1ccccc1[C@@H]1CN(Cc2ccc(F)c(F)c2)CCN1C1CC2(CCN(c3ccc(C(=O)NS(=O)(=O)c4ccc(NC[C@H]5CC[C@](C)(O)CC5)c([N+](=O)[O-])c4)c(Oc4cnc5[nH]ccc5c4)c3)CC2)C1 (single isomer, unassigned) [Example 52a]

0.76
3.7
2.4

Could you report Ratio of Bcl-2 D103Y/Bcl-2 WT for every entry in the following list?
1. COc1ccc(CN2CCN(C3CC4(C3)CN(c3ccc(C(=O)NS(=O)(=O)c5ccc(NC[C@H]6CC[C@](C)(O)CC6)c([N+](=O)[O-])c5)c(Oc5cnc6[nH]cc(F)c6c5)c3)C4)[C@H](c3ccccc3C(C)C)C2)cn1 [Example 215]
2. COc1cc(CN2CCN(C3CC4(C3)CN(c3ccc(C(=O)NS(=O)(=O)c5ccc(NC[C@H]6CC[C@](C)(O)CC6)c([N+](=O)[O-])c5)c(Oc5cnc6[nH]cc(F)c6c5)c3)C4)[C@H](c3ccccc3C(C)C)C2)ccc1OC1CC1 [Example 321]
3. COc1cc(CN2CCN(C3CC4(CCN(c5ccc(C(=O)NS(=O)(=O)c6ccc(NC[C@H]7CC[C@](C)(O)CC7)c([N+](=O)[O-])c6)c(Oc6cnc7[nH]ccc7c6)c5)CC4)C3)C(c3ccccc3C(C)C)C2)cnc1OC (stereo partly shown) [Example 176]
4. CC(C)c1ccccc1[C@@H]1CN(Cc2cnn(C)c2)CCN1C1CC2(CCN(c3ccc(C(=O)NS(=O)(=O)c4ccc(NC[C@H]5CC[C@](C)(O)CC5)c([N+](=O)[O-])c4)c(Oc4cnc5[nH]ccc5c4)c3)CC2)C1 (single isomer, unassigned) [Example 22a]
5. COc1cc(CN2CCN(C3CC4(C3)CN(c3ccc(C(=O)NS(=O)(=O)c5ccc(NC[C@H]6CC[C@](C)(O)CC6)c([N+](=O)[O-])c5)c(Oc5cnc6[nH]cc(F)c6c5)c3)C4)[C@H](c3ccccc3C(C)C)C2)ccc1N1CCOCC1 [Example 361]
6. CC(C)c1ccccc1C1CN(Cc2ccc(F)cc2)CCN1C1CC2(CCN(c3ccc(C(=O)NS(=O)(=O)c4ccc(NC[C@H]5CC[C@](C)(O)CC5)c([N+](=O)[O-])c4)c(Oc4cnc5[nH]ccc5c4)c3)CC2)C1 (stereo partly shown) [Example 28]
7. COc1cc(CN2CCN(C3CC4(C3)CN(c3ccc(C(=O)NS(=O)(=O)c5ccc(NC[C@H]6CC[C@](C)(O)CC6)c([N+](=O)[O-])c5)c(Oc5cnc6[nH]cc(F)c6c5)c3)C4)[C@H](c3ccccc3C(C)C)C2)ccc1C1CCOCC1 [Example 367]

1: 1.1; 2: 0.79; 3: 1.7; 4: 5.2; 5: 1.6; 6: 1.5; 7: 1.2

I have this compound here, COc1ccc(CN2CCN(C3CC4(CCN(c5ccc(C(=O)NS(=O)(=O)c6ccc(NC[C@H]7CC[C@](C)(O)CC7)c([N+](=O)[O-])c6)c(Oc6cnc7[nH]ccc7c6)c5)CC4)C3)C(c3ccccc3C(C)C)C2)cc1C (stereo partly shown) [Example 144] , and I need its recorded Ratio of Bcl-2 D103Y/Bcl-2 WT. 1.8
